The measurements presented in this section are drawn from patent US20260139048A1.

# Assay Target: T1, cynomolgus TIGIT expressed on CHO-K1 cells (cynomolgus, UniProt A0A7N9I9V4 89-312)
# T1 construct: whole, on cells; also called cynomolgus TIGIT over-expressing cell line
# T1 sequence (A0A7N9I9V4 entry or part of it): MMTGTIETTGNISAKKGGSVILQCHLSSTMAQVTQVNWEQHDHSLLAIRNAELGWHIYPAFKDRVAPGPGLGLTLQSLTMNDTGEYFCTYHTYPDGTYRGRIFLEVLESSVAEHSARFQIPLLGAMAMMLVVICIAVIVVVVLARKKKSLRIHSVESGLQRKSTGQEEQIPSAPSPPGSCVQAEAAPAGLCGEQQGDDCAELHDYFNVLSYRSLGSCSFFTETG
# Test: flow cytometry on CHO-K1 cells expressing cynomolgus TIGIT
Each item that follows carries a reported EC50.
Provide the reading as a plain figure in nM.

binder="TIGIT-63 chimeric antibody (antibody, human IgG1, kappa, V domains shown, Full-length chimeric IgG1 kappa) VH: DVQLVESGGGLVQPGGSLSLSCAASGFTFTDYYMNWVRQPPGKALEWLGFIRNKANGYTTEYSASVKGRFTISRDNSQSILYLQMNALRAEDSATYYCARSTAWYFDVWGTGTTLTVSS VL: DIQMTQSPASLSASVGGTVTITCRASEHIYSYLAWYQQKQGKSPQLLVYNAKTLAEGVPSRFSGSGSGTQFSLKINSLQPKDFGSYYCQHHYGNPLTFGAGTKLELKR" value_reported=1.92
binder="TIGIT-52 chimeric antibody (antibody, human IgG1, kappa, V domains shown, Full-length chimeric IgG1 kappa) VH: EVQLVESGGGLVEPGGSLTLSCVASGFTFSSFAMSWVRQTPEKRLEWVATISNGGSYTYYPDTVKGRFTISRDNAKNTLFLQMSSLRSEDTAMYYCARPYYGTTYGYYFDFWGQGTTLTVSS VL: QIVLTQSPASLAVSLGQRATISCRASESVDRNGNSFMHWYQQKPGQPPKLLIYLASNLESGVPARFSGSGSRTDFTLTIDPVEADDAATYYCQQNNEDPLTFGAGTKLELKR" value_reported=7.68

Kindly consider the entry below.
IN: Entry TIGIT-94 chimeric antibody (antibody, human IgG1, kappa, V domains shown, Full-length chimeric IgG1 kappa) VH: EVKLVESGGGLVKPGGSLKLSCAASGFTFSTYTMSWVRQTPEKRLEWVATISSGGTYTHYPDSVKGRFTISRDNAKNTLYLQMSSLKSEDTAMYYCTRWFLSLYAMDYWGQGTSVTVSS VL: DIVMTQSTSSLSASLGDRVTISCRASQDINNFLNWYQQKPAGTVDLLIYYTSRLHSGVPSRFSGSGSGTDYSLTISNLDQEDIATYFCQQGNTFPYTFGGGTRLEIKR has what EC50?
OUT: 0.74
